Test system: Venturia inaequalis
Assay: Apple scab control on sprayed apple seedlings (Example 82)
Type: in vivo
Details: Venturia inaequalis, 100 ppm spray, day before inoculation
pest or weed control at 100 ppm values, listed per item
Respond with the bare value in %.

* O[Si](Cn1cnnc1)(c1ccc(Cl)cc1)c1ccc(Cl)cc1 | 100
* C[Si](C)(Cn1cncn1)c1ccc(S(C)(=O)=O)cc1 | 0

Which pest or weed control at 100 ppm is listed for `c1ccc([Si](Cn2cncn2)(c2ccccc2)c2ccccc2)cc1` ?
0

Which pest or weed control at 100 ppm is reported for this compound? `Cc1ccc([Si](C)(C)Cn2cncn2)cc1`
50

Can you look up the measured pest or weed control at 100 ppm of CC(C)O[Si](C)(Cn1cncn1)c1ccc(-c2ccccc2)cc1 (stereo not drawn) for me?
100

Any idea what pest or weed control at 100 ppm was measured for `O[Si](Cn1cncn1)(c1ccc(Cl)cc1)c1ccc(Cl)cc1` ?
100

What does the data say about its pest or weed control at 100 ppm? Entry: C[Si](Cn1cncn1)(c1ccccc1)c1ccc(-c2ccccc2)cc1 (stereo not drawn)
100

Reported pest or weed control at 100 ppm for C[Si](Cn1cncn1)(c1ccccc1)c1ccc(Br)cc1 (stereo not drawn) : what is it?
100

Dear colleague, I am looking for the recorded pest or weed control at 100 ppm of the following compound: `C[Si](C)(Cn1cnnc1)c1ccc(-c2ccccc2)cc1`
80

Give its pest or weed control at 100 ppm value. Item: C[Si](Cn1cncn1)(c1ccc(F)cc1)c1ccc(-c2ccccc2)cc1 (stereo not drawn)
100

So what does the record say about pest or weed control at 100 ppm for `Cc1ncnn1C[Si](C)(C)c1ccc(-c2ccccc2)cc1` ?
100

// pest or weed control at 100 ppm lookup, key: `CC(C)(C)c1ccc([Si](C)(C)Cn2cncn2)cc1`
0

Query (compound): `C[Si](Cn1cncn1)(c1ccccc1)c1ccccc1` ; field requested: pest or weed control at 100 ppm
100

Query: pest or weed control at 100 ppm; subject: `C[Si](C)(Cn1cncn1)c1ccc(-c2ccccc2)cc1`
100

Fill in the blank: the reported pest or weed control at 100 ppm of `C[Si](C)(Cn1cncn1)c1ccc(Br)cc1` is ____.
90
